Tested Target: recombinant human cannabinoid CB1 receptor (Homo sapiens)
Construct: purchased Receptor Biology RB-HCB1
Sequence (P21554 whole entry): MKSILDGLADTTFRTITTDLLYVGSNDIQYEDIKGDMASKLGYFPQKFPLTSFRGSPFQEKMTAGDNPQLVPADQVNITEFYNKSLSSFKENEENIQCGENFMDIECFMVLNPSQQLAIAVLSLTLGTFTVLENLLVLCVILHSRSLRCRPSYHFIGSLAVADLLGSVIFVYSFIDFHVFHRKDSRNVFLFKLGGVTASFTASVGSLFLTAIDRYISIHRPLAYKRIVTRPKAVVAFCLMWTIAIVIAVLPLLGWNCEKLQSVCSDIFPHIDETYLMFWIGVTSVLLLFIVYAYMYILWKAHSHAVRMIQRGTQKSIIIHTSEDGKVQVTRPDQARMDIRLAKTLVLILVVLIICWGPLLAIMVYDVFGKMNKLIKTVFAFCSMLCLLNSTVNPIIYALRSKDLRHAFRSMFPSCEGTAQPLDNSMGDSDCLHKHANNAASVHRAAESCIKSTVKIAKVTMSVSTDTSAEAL
Assay Method Text: [3H] CP-55,940 competition binding to recombinant cannabinoid receptor membranes (CB1), reported as the CB1/CB2 selection ratio
Measurement Conditions: Ki CB1 / Ki CB2, same binding assay
Form field: selection ratio of the Ki value of the CB1 receptor to that of the CB2 receptor (one value per entry).

Use the examples below as a reference point.
O=S(=O)(c1cc2ccccc2n1S(=O)(=O)c1ccccc1F)N1CCC2(CC1)C[C@@H]2NS(=O)(=O)C(F)(F)F: ~400
CCC1(CNCC(F)(F)F)CC2CCC(C1)N2S(=O)(=O)c1ccc(Cl)cc1S(=O)(=O)c1ccccn1 (stereo not drawn): ~770

Continue with the compound presented below.
In: What is its selection ratio of the Ki value of the CB1 receptor to that of the CB2 receptor for recombinant human cannabinoid CB1 receptor (Homo sapiens)? Entry: CCC1(CNS(=O)(=O)C(F)(F)F)CC2CCC(C1)N2S(=O)(=O)c1ccc(Cl)cc1S(=O)(=O)c1ccccn1 (stereo not drawn)
Out: ~52
